Data origin, for the record: patent US20190106460A1

Target: T1, βTrCP (tag cleaved and complexed with Skp1) (UniProt Q9Y297 175-605; P63208 1-163)
T1 construct: Protein of the FP assay (0.035 µM); also called Beta Transducin repeat-containing protein; βTrCP/Skp1
T1 sequence (Q9Y297 175-605, chain 1 of 2): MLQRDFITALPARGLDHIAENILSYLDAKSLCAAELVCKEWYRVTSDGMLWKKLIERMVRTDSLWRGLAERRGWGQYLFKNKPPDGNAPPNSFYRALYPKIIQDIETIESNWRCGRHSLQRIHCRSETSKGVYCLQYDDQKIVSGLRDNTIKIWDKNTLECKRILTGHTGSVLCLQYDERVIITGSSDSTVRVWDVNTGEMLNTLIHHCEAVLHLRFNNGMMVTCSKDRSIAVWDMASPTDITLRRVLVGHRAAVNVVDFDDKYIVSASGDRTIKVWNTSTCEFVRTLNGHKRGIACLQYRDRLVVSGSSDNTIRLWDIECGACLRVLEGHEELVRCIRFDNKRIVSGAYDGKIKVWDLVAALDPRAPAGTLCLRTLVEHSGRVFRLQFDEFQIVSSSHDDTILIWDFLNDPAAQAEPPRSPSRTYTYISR
T1 sequence (P63208 whole entry, chain 2 of 2): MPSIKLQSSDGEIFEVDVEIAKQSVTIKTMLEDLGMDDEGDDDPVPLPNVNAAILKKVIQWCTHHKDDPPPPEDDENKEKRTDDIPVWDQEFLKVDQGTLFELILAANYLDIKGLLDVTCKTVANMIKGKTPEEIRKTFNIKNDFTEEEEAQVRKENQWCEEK
Test: FP competition vs fluorescein-IκB peptide
Starred links: 1 amine or outer side, 2 acyl side, 3 side chain; linkers in the order of their positions; H or OH if unused. Non-standard residues stand in square brackets, D forms with d. *: point of attachment. E(Me) = COC(=O)CC[C@H](N[*:1])C(=O)[*:2]; Phe(3-F) = N[C@@H](Cc1cccc(F)c1)C(=O)O; Tos = Cc1ccc(S(=O)(=O)*)cc1; Ethoxycarbonyl = CCOC(=O)*
Could you mark each record true if its IC50 falls strictly under 60 nM, and false if it equals or exceeds it?

binder	label.class
{4‑(PhO)PhSO2}-[dD]EG[Phe(3-F)]WE-NH2 [4-(PhO)PhSO2-dEG-F(3F)-WE-NH2]	false
Ethoxycarbonyl-[dD]EG[Phe(3-F)]WE-NH2 (SMILES CCOC(=O)N[C@H](CC(=O)O)C(=O)N[C@@H](CCC(=O)O)C(=O)NCC(=O)N[C@@H](Cc1cccc(F)c1)C(=O)N[C@@H](Cc1c[nH]c2ccccc12)C(=O)N[C@@H](CCC(=O)O)C(N)=O, also called UBP023) [EtO(CO)-dEGF(3F)WE-NH2]	true
Tos-[dD]DG[Phe(3-F)]WE-NH2 (SMILES Cc1ccc(S(=O)(=O)N[C@H](CC(=O)O)C(=O)N[C@@H](CC(=O)O)C(=O)NCC(=O)N[C@@H](Cc2cccc(F)c2)C(=O)N[C@@H](Cc2c[nH]c3ccccc23)C(=O)N[C@@H](CCC(=O)O)C(N)=O)cc1, also called UBP025) [Ts-dDGF(3F)WE-NH2]	true
Tos-[dD]EG[Phe(3-F)]W[E(Me)]-NH2 (also called UBP032) [Ts-dEGF(3F)WE(Me)-NH2]	true
Ac-[dD]EG[Phe(3-F)]WE-NH2 (also called UBP017) [Ac-dEGF(3F)WE-NH2]	false
